- test_target: Sodium-dependent serotonin transporter (Homo sapiens, UniProt P31645)
- Sequence (P31645 whole entry): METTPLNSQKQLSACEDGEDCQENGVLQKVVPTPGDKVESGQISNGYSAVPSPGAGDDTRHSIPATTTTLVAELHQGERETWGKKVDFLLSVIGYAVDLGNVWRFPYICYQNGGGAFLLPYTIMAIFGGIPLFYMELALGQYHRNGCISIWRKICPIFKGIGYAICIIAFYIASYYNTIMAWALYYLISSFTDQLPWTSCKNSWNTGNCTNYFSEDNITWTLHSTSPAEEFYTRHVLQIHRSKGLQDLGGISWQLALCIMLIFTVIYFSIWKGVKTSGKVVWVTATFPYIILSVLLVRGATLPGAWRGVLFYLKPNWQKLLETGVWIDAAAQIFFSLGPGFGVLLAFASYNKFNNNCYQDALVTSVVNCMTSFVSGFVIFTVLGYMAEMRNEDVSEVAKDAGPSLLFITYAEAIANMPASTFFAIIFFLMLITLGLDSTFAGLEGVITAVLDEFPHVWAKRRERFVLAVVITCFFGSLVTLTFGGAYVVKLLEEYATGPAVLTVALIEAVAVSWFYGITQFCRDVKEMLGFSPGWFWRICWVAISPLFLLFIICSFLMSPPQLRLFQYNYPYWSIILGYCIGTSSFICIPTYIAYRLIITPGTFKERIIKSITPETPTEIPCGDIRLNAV
- test_description: Affinity was evaluated using [3H]citalopram (radioligand) on human serotonin transporter expressed in HEK cells
Documented IC50 across a set of compounds
Answer with a number only, understood to be in µM.

O=C(CC1CCN(Cc2ccc(F)cc2)CC1)NC(c1ccccc1)c1ccccc1: 49.2
Fc1ccc(CN2CCC(CCNC(c3ccccc3)c3ccccc3)CC2)cc1: 5.85

We next turn to a different compound, shown below.
Q) What value of IC50 has been reported for the following compound? Fc1ccc(C(NCCC2CCN(Cc3ccccc3)CC2)c2ccc(F)cc2)cc1
A) 10.7

###

- test_target: UniProtKB Q01959
- Sequence (Q01959 whole entry): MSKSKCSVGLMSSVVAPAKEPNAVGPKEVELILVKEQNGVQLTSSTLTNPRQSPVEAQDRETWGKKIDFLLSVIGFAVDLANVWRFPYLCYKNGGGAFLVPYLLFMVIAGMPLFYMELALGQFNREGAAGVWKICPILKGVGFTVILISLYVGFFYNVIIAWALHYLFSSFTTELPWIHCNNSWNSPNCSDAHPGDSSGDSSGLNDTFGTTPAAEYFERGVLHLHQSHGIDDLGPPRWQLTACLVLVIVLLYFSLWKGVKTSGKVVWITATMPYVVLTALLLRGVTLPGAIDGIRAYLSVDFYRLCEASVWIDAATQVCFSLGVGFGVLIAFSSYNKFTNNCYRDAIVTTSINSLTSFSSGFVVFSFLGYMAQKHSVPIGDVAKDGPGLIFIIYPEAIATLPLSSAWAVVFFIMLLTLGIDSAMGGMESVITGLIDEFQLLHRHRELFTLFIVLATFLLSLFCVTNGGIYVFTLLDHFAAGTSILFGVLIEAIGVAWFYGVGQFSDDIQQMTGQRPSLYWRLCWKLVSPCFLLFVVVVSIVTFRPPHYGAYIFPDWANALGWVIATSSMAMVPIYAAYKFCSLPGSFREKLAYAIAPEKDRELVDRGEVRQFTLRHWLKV
- test_description: Affinity was evaluated using [3H]WIN-35428 (radioligand) on Cloned human Dopamine transporter expressed in HEK cells
- Type: cell-based, HEK293
metric_name: log10(IC50) (log10 of the value in nM)
Values are log10 of IC50 in nM.

Fc1ccc(C(NCCC2CCN(Cc3ccccc3)CC2)c2ccc(F)cc2)cc1: 1.52
Fc1ccc(CN2CCC(CCOC(c3ccccc3)c3ccccc3)CC2)cc1: 1.58
O=C(CC1CCN(Cc2ccc(F)cc2)CC1)NC(c1ccccc1)c1ccccc1: 3.51
Fc1ccc(C(OCCC2CCN(Cc3ccccc3)CC2)c2ccc(F)cc2)cc1: 1.54

We next turn to a different compound, shown below.
Q) So what log10(IC50) did Fc1ccc(CN2CCC(CCNC(c3ccccc3)c3ccccc3)CC2)cc1 get with UniProtKB Q01959?
A) 1.48
